assay.notes: Safety and tolerability: treatment-emergent adverse events by intervention
Type: in vivo, human
experimental.context: TEAE; intervention arm = label; P-CAB arms co-administered with atorvastatin 40 mg, 7 days
reported.metric: Blood bilirubin increased: number of subjects
Numbers only.

>  <compound>
CC(C)c1c(C(=O)Nc2ccccc2)c(-c2ccccc2)c(-c2ccc(F)cc2)n1CC[C@@H](O)C[C@@H](O)CC(=O)O [Reference 1, atorvastatin]

>  <assay.value>
1

$$$$

Give measured Blood bilirubin increased: number of subjects for every item shown.
1. Cc1nc2cc(C(=O)N(C)C)cc(O[C@H]3CCOc4cc(F)cc(F)c43)c2[nH]1
2. CNCc1cc(-c2ccccc2F)n(S(=O)(=O)c2cccnc2)c1

OUTPUT:
1: 2; 2: 1

Please fill in: Blood bilirubin increased: number of subjects reported for CC(C)c1c(C(=O)Nc2ccccc2)c(-c2ccccc2)c(-c2ccc(F)cc2)n1CC[C@@H](O)C[C@@H](O)CC(=O)O [Reference 2, atorvastatin] = 2
